- Test system: Klebsiella pneumoniae
- protocolNotes: Antimicrobial activity against Klebsiella pneumoniae ATCC 13883 assessed as bacterial growth inhibition incubated for 20 hrs by broth microdilution method
- Format: functional
Positions of bridges follow the written chain, without caps; N, C: chain ends. Non-standard residues stand in square brackets, D forms with d. Residues, ends and D or L forms follow the SMILES beside them. *: point of attachment. dPhe(3,4,5-F3) = N[C@H](Cc1cc(F)c(F)c(F)c1)C(=O)O; dPhe(4-Cl) = N[C@H](Cc1ccc(Cl)cc1)C(=O)O; Octanoyl = CCCCCCCC(=O)*; Dab = NCC[C@H](N)C(=O)O
Reported MIC is given for each of the following molecules.

| molecule | MIC |
| --- | --- |
| CCCCCCCC(=O)N[C@@H](CCN)C(=O)N[C@H](C(=O)N[C@@H](CCN)C(=O)N[C@H]1CCNC(=O)[C@H]([C@@H](C)O)NC(=O)[C@H](CCN)NC(=O)[C@H](CCN)NC(=O)[C@H](CC(C)C)NC(=O)[C@@H](Cc2cc(F)c(F)c(F)c2)NC(=O)[C@H](CCN)NC1=O)[C@@H](C)O (Octanoyl-[Dab]T[Dab][Dab][Dab][dPhe(3,4,5-F3)]L[Dab][Dab]T; lactam 4-C) | < 0.125 µg/mL |

Req: // lookup MIC | system=Klebsiella pneumoniae | key= "CC(=O)N[C@H](Cc1ccc(Cl)cc1)C(=O)N[C@@H](CCN)C(=O)N[C@H](C(=O)N[C@@H](CCN)C(=O)N[C@H]1CCNC(=O)[C@H]([C@@H](C)O)NC(=O)[C@H](CCN)NC(=O)[C@H](CCN)NC(=O)[C@H](CC(C)C)NC(=O)[C@@H](Cc2ccccc2)NC(=O)[C@@H](CCN)NC1=O)[C@H](C)O"
Resp: 16 µg/mL

Req: // lookup MIC | system=Klebsiella pneumoniae | key= CCCCCCCC(=O)N[C@@H](CCN)C(=O)N[C@H](C(=O)N[C@@H](CCN)C(=O)N[C@H]1CCNC(=O)[C@H]([C@@H](C)O)NC(=O)[C@H](CCN)NC(=O)[C@H](CCN)NC(=O)[C@H](CC(C)C)NC(=O)[C@@H](Cc2ccc(Cl)cc2)NC(=O)[C@H](CCN)NC1=O)[C@@H](C)O (Octanoyl-[Dab]T[Dab][Dab][Dab][dPhe(4-Cl)]L[Dab][Dab]T; lactam 4-C)
Resp: < 0.125 µg/mL

* * *

- protocolNotes: Hemolytic activity in human RBC at 400 ug/ml after 1 hr
- Format: toxicity, cell-based, Erythrocyte
- conditionSet: red blood cells (erythrocytes), at 400 µg/mL, read-out: Activity
Positions of bridges follow the written chain, without caps; N, C: chain ends. Non-standard residues stand in square brackets, D forms with d. Residues, ends and D or L forms follow the SMILES beside them. *: point of attachment. Phe(4-Br) = N[C@@H](Cc1ccc(Br)cc1)C(=O)O; Phe(4-Cl) = N[C@@H](Cc1ccc(Cl)cc1)C(=O)O; Phe(4-F) = N[C@@H](Cc1ccc(F)cc1)C(=O)O; Octanoyl = CCCCCCCC(=O)*; Dab = NCC[C@H](N)C(=O)O
Reported hemolysis at 1 h, 400 ug/ml is given for each of the following compounds.

Req: Need hemolysis at 1 h, 400 ug/ml of CCCCCCCC(=O)N[C@@H](CCN)C(=O)N[C@H](C(=O)N[C@@H](CCN)C(=O)N[C@H]1CCNC(=O)[C@H]([C@@H](C)O)NC(=O)[C@H](CCN)NC(=O)[C@H](CCN)NC(=O)[C@H](Cc2ccc(Br)cc2)NC(=O)[C@@H](CC(C)C)NC(=O)[C@H](CCN)NC1=O)[C@@H](C)O (Octanoyl-[Dab]T[Dab][Dab][Dab][dL][Phe(4-Br)][Dab][Dab]T; lactam 4-C) , thanks.
Resp: < 10%

Req: Need hemolysis at 1 h, 400 ug/ml of CCCCCCCC(=O)N[C@@H](CCN)C(=O)N[C@H](C(=O)N[C@@H](CCN)C(=O)N[C@H]1CCNC(=O)[C@H]([C@@H](C)O)NC(=O)[C@H](CCN)NC(=O)[C@H](CCN)NC(=O)[C@H](Cc2ccc(F)cc2)NC(=O)[C@@H](CC(C)C)NC(=O)[C@H](CCN)NC1=O)[C@@H](C)O (Octanoyl-[Dab]T[Dab][Dab][Dab][dL][Phe(4-F)][Dab][Dab]T; lactam 4-C) , thanks.
Resp: < 10%

Req: Need hemolysis at 1 h, 400 ug/ml of CCCCCCCC(=O)N[C@@H](CCN)C(=O)N[C@H](C(=O)N[C@@H](CCN)C(=O)N[C@H]1CCNC(=O)[C@H]([C@@H](C)O)NC(=O)[C@H](CCN)NC(=O)[C@H](CCN)NC(=O)[C@H](Cc2ccc(Cl)cc2)NC(=O)[C@@H](CC(C)C)NC(=O)[C@H](CCN)NC1=O)[C@@H](C)O (Octanoyl-[Dab]T[Dab][Dab][Dab][dL][Phe(4-Cl)][Dab][Dab]T; lactam 4-C) , thanks.
Resp: < 10%
